# System: E. coli 14182
# TEST DETAILS: Antibiotic MIC / chemo-sensitization checkerboard with OAK, E. coli 14182
# Type: cell-based
# CONDITION SUMMARY: +3.5 μg/ml C12K-7α8 (½ MIC)

[
  {
    "SMILES DATA": "CO[C@H]1/C=C/O[C@@]2(C)Oc3c(C)c(O)c4c(O)c(c(/C=N/N5CCN(C)CC5)c(O)c4c3C2=O)NC(=O)/C(C)=C\\C=C\\[C@H](C)[C@H](O)[C@@H](C)[C@@H](O)[C@@H](C)[C@H](OC(C)=O)[C@@H]1C",
    "Antibiotic MIC in presence of OAK": "0.25 µg/mL"
  },
  {
    "SMILES DATA": "CCN1CCN(C(=O)N[C@@H](C(=O)N[C@@H]2C(=O)N3[C@@H]2SC(C)(C)[C@@H]3C(=O)O)c2ccccc2)C(=O)C1=O",
    "Antibiotic MIC in presence of OAK": "64 µg/mL"
  },
  {
    "SMILES DATA": "Cc1onc(-c2ccccc2)c1C(=O)N[C@@H]1C(=O)N2[C@@H]1SC(C)(C)[C@@H]2C(=O)O",
    "Antibiotic MIC in presence of OAK": ">512 µg/mL"
  },
  {
    "SMILES DATA": "CC1(C)S[C@@H]2[C@H](NC(=O)Cc3ccccc3)C(=O)N2[C@H]1C(=O)O",
    "Antibiotic MIC in presence of OAK": ">512 µg/mL"
  },
  {
    "SMILES DATA": "CC[C@H]1OC(=O)[C@H](C)[C@@H](O[C@H]2C[C@@](C)(OC)[C@@H](O)[C@H](C)O2)[C@H](C)[C@@H](O[C@@H]2O[C@H](C)C[C@H](N(C)C)[C@H]2O)[C@](C)(O)C[C@@H](C)C(=O)[C@H](C)[C@@H](O)[C@]1(C)O",
    "Antibiotic MIC in presence of OAK": "4 µg/mL"
  }
]

* * *

# TEST DETAILS: Cochleate formation by light microscopy
# Type: physicochemical
# Parameters: key: or above (E!); excellent (E); good (G); poor (P); none (N)
# CONDITION SUMMARY: DOPE:TOCL 75:25; 1:10 lipid to polymer ratio
RECORDED METRIC: Cochleate formation

[
  {
    "COMPOUND": "CCCCCCCCCCCC(=O)NC(CCCCN)C(=O)NCCCCCCCC(=O)NC(CCCCN)C(=O)NCCCCCCCC(=O)NC(CCCCN)C(=O)NCCCCCCCC(=O)NC(CCCCN)C(=O)NCCCCCCCC(=O)NC(CCCCN)C(=O)NCCCCCCCC(=O)NC(CCCCN)C(=O)NCCCCCCCC(=O)NC(CCCCN)C(=O)NCCCCCCCC(=O)NC(CCCCN)C(=O)NCCCCCCCC(=O)NC(CCCCN)C(=O)NCCCCCCCC(=O)NC(CCCCN)C(N)=O (stereo not drawn) [C12K-9α8, C12K(NC8K)9NH2]",
    "RESULT": "G"
  },
  {
    "COMPOUND": "CCCCCCCCCCCC(=O)NC(CCCCN)C(=O)NCCCCCCCC(=O)NC(CCCCN)C(=O)NCCCCCCCC(=O)NC(CCCCN)C(=O)NCCCCCCCC(=O)NC(CCCCN)C(=O)NCCCCCCCC(=O)NC(CCCCN)C(=O)NCCCCCCCC(=O)NC(CCCCN)C(=O)NCCCCCCCC(=O)NC(CCCCN)C(=O)NCCCCCCCC(=O)NC(CCCCN)C(=O)NCCCCCCCC(=O)NC(CCCCN)C(N)=O (stereo not drawn) [C12K-8α8, C12K(NC8K)8NH2]",
    "RESULT": "G"
  },
  {
    "COMPOUND": "CCCCCCCCCCCC(=O)NC(CCCCN)C(=O)NCCCCCCCC(=O)NC(CCCCN)C(=O)NCCCCCCCC(=O)NC(CCCCN)C(=O)NCCCCCCCC(=O)NC(CCCCN)C(=O)NCCCCCCCC(=O)NC(CCCCN)C(=O)NCCCCCCCC(=O)NC(CCCCN)C(=O)NCCCCCCCC(=O)NC(CCCCN)C(=O)NCCCCCCCC(=O)NC(CCCCN)C(=O)NCCCCCCCC(=O)NC(CCCCN)C(=O)NCCCCCCCC(=O)NC(CCCCN)C(=O)NCCCCCCCC(=O)NC(CCCCN)C(=O)NCCCCCCCC(=O)NC(CCCCN)C(N)=O (stereo not drawn) [C12K-11α8, C12K(NC8K)11NH2]",
    "RESULT": "G"
  },
  {
    "COMPOUND": "CCCCCCCCCCCC(=O)NC(CCCCN)C(=O)NCCCCCCCC(=O)NC(CCCCN)C(=O)NCCCCCCCC(=O)NC(CCCCN)C(=O)NCCCCCCCC(=O)NC(CCCCN)C(=O)NCCCCCCCC(=O)NC(CCCCN)C(=O)NCCCCCCCC(=O)NC(CCCCN)C(=O)NCCCCCCCC(=O)NC(CCCCN)C(=O)NCCCCCCCC(=O)NC(CCCCN)C(N)=O (stereo not drawn) [C12K-7α8, C12K(NC8K)7NH2]",
    "RESULT": "P"
  }
]
